- Tested on: Mucor mucedo
- protocol-summary: Antifungal activity against Mucor mucedo ATCC 7941 at pH 7 after 20 h in presence of 10% beef serum
- settings: ATCC 7941, 20 h
Counter-ions that a name gives are not always drawn.
# Fulfilled = MIC below 20 µg/mL (exclusive); Not fulfilled = MIC at/above 20 µg/mL

*Q* Threshold test, MIC < 20 µg/mL: COC(=O)/C=C(/Br)C(=O)OC
*A* Not fulfilled

*Q* Threshold test, MIC < 20 µg/mL: CCCOC(=O)[C@@H](F)[C@@H](Br)C(=O)OCCC (relative stereo)
*A* Fulfilled

*Q* Threshold test, MIC < 20 µg/mL: CCCCOC(=O)[C@@H](F)[C@@H](Br)C(=O)OCCCC (relative stereo)
*A* Not fulfilled

*Q* Threshold test, MIC < 20 µg/mL: CCOC(=O)[C@@H](F)[C@@H](Br)C(=O)OCC (relative stereo)
*A* Fulfilled

*Q* Threshold test, MIC < 20 µg/mL: CCOC(=O)[C@H](F)[C@@H](Br)C(=O)OCC (relative stereo)
*A* Fulfilled

*Q* Threshold test, MIC < 20 µg/mL: COC(=O)/C=C/C(=O)OC [DIMETHYL FUMARATE]
*A* Not fulfilled

====

- Tested on: Aspergillus niger
- protocol-summary: Antifungal activity against Aspergillus niger ATCC 1004 at pH 7 after 5 days in absence of 10% beef serum
- Assay type: functional
- settings: Aspergillus niger, ATCC 1004, 120 h; read-out: MIC
# YES = MIC below 30 µg/mL (exclusive); NO = MIC at/above 30 µg/mL

*Q* Threshold test, MIC < 30 µg/mL: COC(=O)/C=C(\F)C(=O)OC
*A* NO

*Q* Threshold test, MIC < 30 µg/mL: CCOC(=O)[C@H](F)[C@@H](Br)C(=O)OCC (relative stereo)
*A* YES

*Q* Threshold test, MIC < 30 µg/mL: CCCOC(=O)[C@H](F)[C@@H](Br)C(=O)OCCC (relative stereo)
*A* NO

*Q* Threshold test, MIC < 30 µg/mL: COC(=O)[C@@H](F)[C@@H](Br)C(=O)OC (relative stereo)
*A* NO

*Q* Threshold test, MIC < 30 µg/mL: CC1/C=C/C=C/C=C/C=C/C=C/C=C/C=C/C(OC2O[C@H](C)[C@@H](O)[C@H](N)[C@@H]2O)CC(O)C(C(=O)O)C(O)CC(=O)CC(O)CC(O)CC(O)CC(=O)CCCC(=O)CC(=O)OC1C(C)CC(C)C(O)CC(=O)c1ccc(N)cc1 (some centres undefined)
*A* YES

*Q* Threshold test, MIC < 30 µg/mL: COC(=O)/C=C(\Br)C(=O)OC
*A* YES

*Q* Threshold test, MIC < 30 µg/mL: CCCOC(=O)[C@@H](F)[C@@H](Br)C(=O)OCCC (relative stereo)
*A* NO

====

I'd appreciate it if you could supply MIC values for the items below.
- Test system: Mucor mucedo
- protocol-summary: Antifungal activity against Mucor mucedo ATCC 7941 at pH 7 after 20 h in presence of 10% beef serum
- settings: ATCC 7941, 20 h
# number only, unit µg/mL dropped from output

*Q* Determine reported MIC for CCOC(=O)/C=C/C(=O)OCC ; test system: Mucor mucedo.
*A* 50

*Q* Determine reported MIC for CC1/C=C/C=C/C=C/C=C/C=C/C=C/C=C/C(OC2O[C@H](C)[C@@H](O)[C@H](N)[C@@H]2O)CC(O)C(C(=O)O)C(O)CC(=O)CC(O)CC(O)CC(O)CC(=O)CCCC(=O)CC(=O)OC1C(C)CC(C)C(O)CC(=O)c1ccc(N)cc1 (some centres undefined) ; test system: Mucor mucedo.
*A* 2

*Q* Determine reported MIC for COC(=O)/C=C(\F)C(=O)OC ; test system: Mucor mucedo.
*A* 6

*Q* Determine reported MIC for COC(=O)CC(F)C(Br)C(=O)OC (centres undefined) ; test system: Mucor mucedo.
*A* 60

*Q* Determine reported MIC for COC(=O)[C@@H](F)[C@@H](Br)C(=O)OC (relative stereo) ; test system: Mucor mucedo.
*A* 12

*Q* Determine reported MIC for CCCOC(=O)[C@H](F)[C@@H](Br)C(=O)OCCC (relative stereo) ; test system: Mucor mucedo.
*A* 20

*Q* Determine reported MIC for COC(=O)C(Br)CF (centres undefined) ; test system: Mucor mucedo.
*A* 30

*Q* Determine reported MIC for COC(=O)/C=C(\Br)C(=O)OC ; test system: Mucor mucedo.
*A* 14

These measurements were taken from ChEMBL document CHEMBL3244142.
